The measurements presented in this section are drawn from PubChem BioAssay AID1851.

Measured On: Cytochrome P450 2C9 (Homo sapiens) (UniProt P11712)
Sequence (P11712 whole entry, looked up): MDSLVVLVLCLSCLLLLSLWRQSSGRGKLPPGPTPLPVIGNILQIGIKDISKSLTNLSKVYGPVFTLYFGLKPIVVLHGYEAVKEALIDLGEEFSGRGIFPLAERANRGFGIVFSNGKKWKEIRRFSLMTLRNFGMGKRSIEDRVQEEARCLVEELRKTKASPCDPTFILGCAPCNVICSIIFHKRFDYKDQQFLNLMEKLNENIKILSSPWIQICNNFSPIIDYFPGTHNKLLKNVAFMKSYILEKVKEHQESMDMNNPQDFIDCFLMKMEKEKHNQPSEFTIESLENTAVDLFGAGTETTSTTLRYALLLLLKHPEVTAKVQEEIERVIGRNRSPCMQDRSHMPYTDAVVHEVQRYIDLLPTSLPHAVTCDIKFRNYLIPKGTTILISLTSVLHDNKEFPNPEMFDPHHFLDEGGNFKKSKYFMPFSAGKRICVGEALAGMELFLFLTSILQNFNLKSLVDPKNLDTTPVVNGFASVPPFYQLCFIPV
Procedure Details: Cytochrome panel assay with activity outcomes
Condition Set: recombinant CYP, pro-luciferin dealkylation, luminescence, p450-cyp2c9; series mostly up to 57.1 µM
The whole screen tested about 16,000 compounds, of which about 4,000 (25%) were called active. Another 26% or so got no clear call; they are omitted. Calls come from the whole dose curve; as a rule, active = well fitted curve in the direction sought with a large enough effect; inconclusive = small, poorly fitted or top-dose-only effect, or effect the other way; inactive = no such curve, though single readings can be large or run the other way. Only a sample is shown.
Result category, one only: y = active, n = inactive

# count of solved cases: 5
Which outcome did this test record for the compound "O=C(c1cccc(F)c1)N1CCC2(CCCN(Cc3ccncc3)C2)CC1" ?
y

Which outcome did this test record for the compound "Cc1cccc(OCCSCc2nc3ccccc3[nH]2)c1" ?
y

Which outcome did this test record for the compound "O=C(c1cnccn1)N1CCC2(CCCN(Cc3nccs3)C2)CC1" ?
y

Which outcome did this test record for the compound "COC(=O)CCC(=O)Nc1cccc2ccccc12" ?
n

Which outcome did this test record for the compound "CN(C)CC/C=C1\c2ccccc2COc2ccccc21" ?
n

---
Which outcome did this test record for the compound "COc1ccccc1CCn1c(=O)c(-c2cccs2)nc2cncnc21" ?
y

Which outcome did this test record for the compound "O=C(Nc1cccc(F)c1)N1CCCC2(CCN(C(=O)c3ccncc3)CC2)C1" ?
y

Which outcome did this test record for the compound "CC(=O)c1cccc(NC=C2C(=O)OC3(CCCCC3)OC2=O)c1" ?
n

Which outcome did this test record for the compound "CC(C)[C@H](CO)Nc1nc(Nc2cc(N)cc(Cl)c2)c2ncn(C(C)C)c2n1" ?
y

Which outcome did this test record for the compound "Cc1cc(C)c(C#N)c(Oc2ccccc2)n1" ?
n

* * *

Measured On: Cytochrome P450 2C9 (Homo sapiens) (UniProt P11712)
Procedure Details: Cytochrome panel assay with activity outcomes
Condition Set: recombinant CYP, pro-luciferin dealkylation, luminescence, p450-cyp2c9; series mostly up to 57.1 µM
Out of some 16,000 compounds screened, about 4,000 (25%) were called active. Another 26% or so got no clear call; they are omitted. The call rests on the fitted dose curve; in most records, active means well fitted curve in the direction sought with a large enough effect; inconclusive means small, poorly fitted or top-dose-only effect, or effect the other way; inactive means no such curve, though single readings can be large or run the other way. The list is a sample of the results.
Result category, one only: active, inactive

Which outcome did this test record for the molecule CC1(O)c2ccccc2C(=O)N1CCc1ccccc1F (stereo not given) ?
active

Which outcome did this test record for the molecule N#CC1=C(SCC(N)=O)NC2=C(C(=O)c3ccccc32)C1c1ccc(Cl)cc1 (stereo not given) ?
active

Which outcome did this test record for the molecule "Cc1ccc(C(=O)CN(C(=O)c2ccc(Cl)cc2)N2C(=O)c3ccccc3C2=O)cc1" ?
active

Which outcome did this test record for the molecule "N[C@@H](COP(=O)(O)O)C(=O)O" ?
inactive

Which outcome did this test record for the molecule "COc1cccc(Cn2c(=O)c(-c3ccc(Cl)cc3)nc3cnc(N4CCNCC4)nc32)c1" ?
active

Which outcome did this test record for the molecule "CN(CC[C@@H](Oc1ccc(-c2ccccc2)cc1)c1ccc(F)cc1)CC(=O)O" ?
active

Which outcome did this test record for the molecule "O=C(Cc1ccccc1I)Nc1ccccc1" ?
active

Which outcome did this test record for the molecule "O=c1c(-c2ccccc2)nc2cnc(N3CCOCC3)nc2n1C[C@H]1CCCO1" ?
inactive

Which outcome did this test record for the molecule "O=c1c(-c2ccc(F)cc2)nc2cnc(N3CCOCC3)nc2n1C1CC1" ?
inactive

Which outcome did this test record for the molecule "COCC(=O)N1CCC2(CCCN(c3ncccn3)C2)CC1" ?
inactive

---
Which outcome did this test record for the molecule "O=c1[nH]ncn2cccc12" ?
inactive

Which outcome did this test record for the molecule "c1ccc(-c2cccc(N3CCC4(CCNCC4)CC3)c2)cc1" ?
inactive

Which outcome did this test record for the molecule O=C(O)C1CCC(=O)N(C2CC2)C1c1ccccc1 (stereo not given) ?
inactive

Which outcome did this test record for the molecule "Cn1c(-c2ccc3c(c2)OCO3)cc(=O)c2ccccc21" ?
inactive

Which outcome did this test record for the molecule "COc1ccc(C(=O)Nc2ccc3c(c2)nc(CN2CCN(C(C)=O)CC2)n3C)cc1" ?
inactive

Which outcome did this test record for the molecule "COC(=O)N1CCC2(CC1)CCN(c1ncccn1)CC2" ?
inactive

Which outcome did this test record for the molecule "CCN(C(=O)c1cnc(N2CCN(c3ncccn3)CC2)c2ccccc12)c1cccc(Cl)c1" ?
active

Which outcome did this test record for the molecule "CNCC[C@@H](Oc1ccccc1C)c1ccccc1" ?
inactive

Which outcome did this test record for the molecule "N#CCCn1c(=O)c(-c2cccc(C#N)c2)nc2cnc(N3CCOCC3)nc21" ?
inactive

Which outcome did this test record for the molecule "O=[n+]1c2c(n([O-])c3cc(F)c(F)cc31)CCCC2" ?
inactive

Which outcome did this test record for the molecule CCn1c2ccccc2c2cc(N=C3SC(CC(=O)Nc4ccccc4OC)C(=O)N3C)ccc21 (stereo not given) ?
active

Which outcome did this test record for the molecule COc1ccccc1NC(=O)CCN1C(=O)C2CC=C(Cl)CC2C1=O (stereo not given) ?
inactive

Which outcome did this test record for the molecule O=C(O)CC(c1cccc2ccccc12)n1cccc1 (stereo not given) ?
active

* * *

Measured On: Cytochrome P450 2C9 (Homo sapiens)
Procedure Details: Cytochrome panel assay with activity outcomes
Condition Set: recombinant CYP, pro-luciferin dealkylation, luminescence, p450-cyp2c9; series mostly up to 57.1 µM
About 4,000 (25%) of roughly 16,000 compounds were called active. Inconclusive results (about 26%) are left out. Calls come from the whole dose curve; as a rule, active = well fitted curve in the direction sought with a large enough effect; inconclusive = small, poorly fitted or top-dose-only effect, or effect the other way; inactive = no such curve, though single readings can be large or run the other way. The list is a sample of the results. Square brackets hold non-standard residues; d marks the D form. Peptide text beside a SMILES is read from it. * marks the point of attachment. ξ: configuration not given here. Cbz = O=C(OCc1ccccc1)*; ξA = CC(N)C(=O)O
Result category, one only: TRUE = active, FALSE = inactive

Which outcome did this test record for the molecule "CN(C)c1ncc2nc(-c3ccc(Cl)cc3)c(=O)n(Cc3cccs3)c2n1" ?
FALSE

Which outcome did this test record for the molecule "NC(=O)C1(N2CCCCC2)CCN(C(=O)c2cccn3c(=O)c4cc(Cl)ccc4nc23)CC1" ?
TRUE

---
Which outcome did this test record for the molecule COc1cccc(C(C#N)N2N=C(C)CC2(C)C)c1O (configuration not stated) ?
FALSE

Which outcome did this test record for the molecule "CCOC(=O)N1CCN(C(=O)c2cnc3n(c2=O)CCS3)CC1" ?
FALSE

Which outcome did this test record for the molecule "CN1CCCC2(CCN(C(=O)c3cnccn3)CC2)C1" ?
FALSE

Which outcome did this test record for the molecule COC(=O)CNC(=O)C(C)NC(=O)CNC(=O)OCc1ccccc1 (stereo not drawn) (Cbz-Gly-[ξA]-Gly-OMe) ?
FALSE

Which outcome did this test record for the molecule "O=C(c1ccc2nc3ccc(Cl)cc3c(=O)n2c1)N1CCOCC1" ?
FALSE

Which outcome did this test record for the molecule "Cc1ccc(C)c(N(CC(=O)NC2CCCC2)C(=O)c2cc3cc4cccc(C)c4nc3s2)c1" ?
TRUE

Which outcome did this test record for the molecule "CC1=C(C(=O)O)N2C(=O)[C@@H](NC(=O)[C@@H](N)C3=CCC=CC3)[C@@H]2SC1" ?
FALSE

Which outcome did this test record for the molecule "COc1cccc(-c2nnc3n2N=C(C(C)(C)C)CS3)c1" ?
TRUE

Which outcome did this test record for the molecule "CN(C)c1ccc(NC(=O)CSc2nc(N)c(C(=O)Nc3ccc(N(C)C)cc3)s2)cc1" ?
TRUE

Which outcome did this test record for the molecule CCOC(=O)c1[nH]c(C)c(C(=O)OCC(=O)N2c3ccccc3CC2C)c1C (configuration not stated) ?
TRUE

* * *

Measured On: Cytochrome P450 2C9 (Homo sapiens) (UniProt P11712)
Procedure Details: Cytochrome panel assay with activity outcomes
Condition Set: recombinant CYP, pro-luciferin dealkylation, luminescence, p450-cyp2c9; series mostly up to 57.1 µM
In all, about 16,000 compounds went through this assay and about 4,000 (25%) were called active. Inconclusive results (about 26%) are left out. Only a sample is shown.
Reported Property: AC50

Solved entries (count: 10):
Given the entry "COc1cccc(Cn2c(=O)c(-c3cc(F)cc(F)c3)nc3cnc(N(C)C)nc32)c1" , report its measured AC50.
inactive

Given the entry "O=C(Nc1cccn(Cc2c(Cl)cccc2Cl)c1=O)c1ccc(Cl)cc1Cl" , report its measured AC50.
3.55 µM (active)

Given the entry "CC(=O)CCCCn1c(=O)c2c(ncn2C)n(C)c1=O" , report its measured AC50.
inactive

Given the entry "C/C(=N\NC(=O)c1ccncc1)c1ccc2ccccc2c1O" , report its measured AC50.
0.1 µM (active)

Given the entry "CCCC(=O)NCCc1c2n(c3ccc(OC)cc13)Cc1ccccc1-2" , report its measured AC50.
1.26 µM (active)

Given the entry "CS(=O)(=O)N1CCC2(CC1)CN(Cc1cc(C(F)(F)F)cc(C(F)(F)F)c1)C2" , report its measured AC50.
inactive

Given the entry "CCOC(=O)CSc1nnc(Cc2cc(=O)[nH]c(=O)[nH]2)n1-c1cccc(OC)c1" , report its measured AC50.
inactive

Given the entry O=C(NC(N1CCCC1)C(Cl)(Cl)Cl)c1ccccc1 (stereo not given) , report its measured AC50.
inactive

Given the entry "COc1ccc(/C=N/NC(=O)CCCOc2ccc(Cl)cc2Cl)cc1[N+](=O)[O-]" , report its measured AC50.
2.24 µM (active)

Given the entry CC(NC(=O)c1ccc(Cn2cc([N+](=O)[O-])cn2)o1)c1ccccc1 (stereo not given) , report its measured AC50.
6.31 µM (active)

---
Given the entry "S=C1SCN(CCN2CCOCC2)CN1Cc1ccccc1" , report its measured AC50.
12.6 µM (active)

Given the entry "COC(=O)C(NC(=O)c1ccccc1)=C1C=C(C)OC(C)=C1" , report its measured AC50.
inactive

Given the entry "O[C@@H](C1=C/C(=C\c2ccncc2)c2ccccc21)c1ccncc1" , report its measured AC50.
0.1 µM (active)
